src = patent US20250034256A1

Biological target: T1, Histidine-tagged human PD-1 protein (hPD-1-His) (human, UniProt Q15116 25-170, limits assumed)
T1 construct: Soluble analyte in SPR; not shown: histidine tag
T1 sequence (Q15116 25-170 limits assumed): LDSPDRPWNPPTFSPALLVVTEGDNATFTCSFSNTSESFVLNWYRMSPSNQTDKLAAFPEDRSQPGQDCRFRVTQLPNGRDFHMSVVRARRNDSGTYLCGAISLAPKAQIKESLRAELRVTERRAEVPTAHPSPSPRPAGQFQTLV
Test: SPR (Biacore T200), antibody captured on Protein A chip, hPD-1-His analyte, 1:1 fit
Field: label. Allowed values: Yes (Kd < 300 nM) or No (Kd >= 300 nM).

# count of solved cases: 4
- binder: "3F1-H1K3-IgG4-S228P (antibody, V domains shown, Humanized; human IgG4 constant domains with S228P (EU numbering)) VH: QVQLQQSGAEVKKPGASVKMSCKASGYTFTSYWMHWVRQAPGQGLEWIGYINPSTGYTEYNQKFKDRATLTADTSTSTAYMELSSLRSEDTAVYYCARGVRYYFDYWGQGTLVTVSS VL: DIVMTQSPSSLAVSAGERVTMSCKSSQSLLNSRTRKNYLAWYQQKPGQSPKLLIYWASTRESGVPDRFSGSGSGTDFTLTISSVQAEDVAVYYCKQSYNLLTFGQGTKLELK"
  group: "Yes"
- binder: "3F1-H4K1-IgG4-S228P (antibody, V domains shown, Humanized; human IgG4 constant domains with S228P (EU numbering)) VH: QVQLQQSGAEVAKPGASVKMSCKASGYTFTSYWMHWVKQRPGQGLEWIGYINPSTGYTEYNQKFKDRATLTADKSTSTAYMELSSLTSEDTAVYYCARGVRYYFDYWGQGTLLTVSS VL: DIVMTQSPDSLAVSLGERATISCKSSQSLLNSRTRKNYLAWYQQKPGQSPKLLIYWASTRESGVPDRFSGSGSGTDFTLTISSVQAEDVAVYYCKQSYNLLTFGQGTKLELK"
  group: "No"
- binder: "3F1-H1K1-IgG4-S228P (antibody, V domains shown, Humanized; human IgG4 constant domains with S228P (EU numbering)) VH: QVQLQQSGAEVKKPGASVKMSCKASGYTFTSYWMHWVRQAPGQGLEWIGYINPSTGYTEYNQKFKDRATLTADTSTSTAYMELSSLRSEDTAVYYCARGVRYYFDYWGQGTLVTVSS VL: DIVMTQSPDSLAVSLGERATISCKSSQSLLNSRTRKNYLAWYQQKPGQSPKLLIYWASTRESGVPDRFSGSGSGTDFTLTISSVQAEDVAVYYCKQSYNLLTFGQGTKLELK"
  group: "No"
- binder: "1A7-H2K1-IgG4-S228P (antibody, V domains shown, Humanized; human IgG4 constant domains with S228P (EU numbering)) VH: EVQLVESGGGLVQPGGSLRLSCAASGFTFSSYSMSWVRQAPGKRLEWVAHISSGGSSTYYPDTVKGRFTISRDNSKNTLYLQMNSLRAEDTAMYYCTRQFYYGSSFWYFDVWGAGTTVTVSS VL: DNVLTQSPATLSLSPGERATLSCKASQSVDFDGDSYMNWYQQKPGQPPRLLIYAASNLESGIPARFSGSGPGTDFTLTISSLEPEDFATYYCQQSNEDPPTFGGGTKVEIK"
  group: "Yes"

Shift focus to the following entry.
A record lists 3F1-H3K3-IgG4-S228P (antibody, V domains shown, Humanized; human IgG4 constant domains with S228P (EU numbering)) VH: QVQLQQSGAEVAKPGASVKMSCKASGYTFTSYWMHWVKQRPGQGLEWIGYINPSTGYTEYNQKFKDRATLTADTSTSTAYMELSSLRSEDTAVYYCARGVRYYFDYWGQGTLLTVSS VL: DIVMTQSPSSLAVSAGERVTMSCKSSQSLLNSRTRKNYLAWYQQKPGQSPKLLIYWASTRESGVPDRFSGSGSGTDFTLTISSVQAEDVAVYYCKQSYNLLTFGQGTKLELK . Is its Kd below 300 nM?
No
